Experiment: Single dose pharmacokinetic study after oral administration, with and without ABT pre-dosing
Format: in vivo, female Balb/c mice
Conditions: female, Balb/c, mouse, in vivo, po, 200 mg/kg, 24 h; PO 200 mg/kg, no ABT; read-out: Drug plasma concentration, Average
recorded metric: concentration at 24 h (ng/mL)

- compound: "Cc1ccc2nc(C)c(C(=O)NCc3ccc(C(F)(F)F)cc3)n2c1 [ND-011176]"
  readout value: 8

###

Assay: Single dose pharmacokinetic study after oral administration, with and without ABT pre-dosing
Format: in vivo, female Balb/c mice
Conditions: female, Balb/c, mouse, in vivo, po, 200 mg/kg, 8 h; PO 200 mg/kg, no ABT; read-out: Drug plasma concentration, Average
Entries and their concentration at 8 h

- smiles repr: "Cc1ccc2nc(C)c(C(=O)NCc3ccc(C(F)(F)F)cc3)n2c1"
  concentration at 8 h / ng/mL: 74
- smiles repr: "[2H]c1c(C([2H])([2H])[2H])c([2H])n2c(C(=O)NCc3ccc(C(F)(F)F)cc3)c(C)nc2c1[2H]"
  concentration at 8 h / ng/mL: 63
